Target: SNX1-BT*:SNX5-BT* heterodimer (human, UniProt Q13596 1-522; Q9Y5X3 1-404)
Sequence (Q13596 whole entry, chain 1 of 2): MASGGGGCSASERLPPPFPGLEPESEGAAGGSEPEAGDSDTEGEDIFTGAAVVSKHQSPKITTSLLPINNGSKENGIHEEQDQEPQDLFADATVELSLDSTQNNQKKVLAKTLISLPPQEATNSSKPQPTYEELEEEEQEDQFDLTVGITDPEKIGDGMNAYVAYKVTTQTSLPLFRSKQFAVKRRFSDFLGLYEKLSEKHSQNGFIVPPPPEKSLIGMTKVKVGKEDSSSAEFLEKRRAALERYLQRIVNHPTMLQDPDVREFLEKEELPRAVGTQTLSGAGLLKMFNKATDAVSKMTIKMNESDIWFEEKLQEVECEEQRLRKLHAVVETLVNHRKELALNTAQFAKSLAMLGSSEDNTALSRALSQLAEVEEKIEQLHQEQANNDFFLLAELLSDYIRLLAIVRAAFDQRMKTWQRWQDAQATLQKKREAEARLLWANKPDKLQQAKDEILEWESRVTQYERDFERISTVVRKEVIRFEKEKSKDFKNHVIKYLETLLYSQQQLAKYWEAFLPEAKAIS
Sequence (Q9Y5X3 whole entry, chain 2 of 2): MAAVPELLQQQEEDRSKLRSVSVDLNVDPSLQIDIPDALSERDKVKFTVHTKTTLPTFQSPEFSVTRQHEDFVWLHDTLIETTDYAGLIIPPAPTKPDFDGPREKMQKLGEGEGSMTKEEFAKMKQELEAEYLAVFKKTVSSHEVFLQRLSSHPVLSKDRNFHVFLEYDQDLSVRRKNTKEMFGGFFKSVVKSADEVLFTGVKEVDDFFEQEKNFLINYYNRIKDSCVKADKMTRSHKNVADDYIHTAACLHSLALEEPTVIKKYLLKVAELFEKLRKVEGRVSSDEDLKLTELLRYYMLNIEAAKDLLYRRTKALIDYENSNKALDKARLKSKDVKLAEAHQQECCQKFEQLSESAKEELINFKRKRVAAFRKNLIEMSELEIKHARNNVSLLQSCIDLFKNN
Assay: ITC; representative single experiment
propertyLabel: pKd
Scale note: pKd = -log10(concentration in M).

Give the measured pKd of SNVSYKYSKVNKEEETDENETEWLMEEIQ .
5.00

Numbers sourced from paper PMC10352136.
